Entry source: ChEMBL document CHEMBL4480426

system.name: Amine oxidase [flavin-containing] A (Homo sapiens, UniProt P21397)
Sequence (P21397 whole entry): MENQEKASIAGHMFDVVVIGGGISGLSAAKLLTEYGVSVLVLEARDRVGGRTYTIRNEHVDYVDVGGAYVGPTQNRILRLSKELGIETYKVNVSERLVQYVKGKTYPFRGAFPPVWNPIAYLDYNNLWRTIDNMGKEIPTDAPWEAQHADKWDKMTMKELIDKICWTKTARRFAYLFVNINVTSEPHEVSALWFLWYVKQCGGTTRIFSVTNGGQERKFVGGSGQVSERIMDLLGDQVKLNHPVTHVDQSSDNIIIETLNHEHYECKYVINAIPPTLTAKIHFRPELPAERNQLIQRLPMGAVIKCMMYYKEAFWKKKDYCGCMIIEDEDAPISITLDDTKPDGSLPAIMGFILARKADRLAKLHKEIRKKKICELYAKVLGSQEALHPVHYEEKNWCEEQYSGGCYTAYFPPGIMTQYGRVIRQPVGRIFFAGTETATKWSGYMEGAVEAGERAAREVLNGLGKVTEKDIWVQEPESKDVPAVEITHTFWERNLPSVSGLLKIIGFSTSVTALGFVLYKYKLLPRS
test.details: Inhibition of recombinant human MAOA expressed in baculovirus infected BTI insect cells at 1 to 100 uM using p-tyramine as substrate preincubated for 30 mins followed by substrate addition and measured over 45 mins by horseradish peroxidase-Amplex Red-coupled fluorometric assay relative to control
test.parameters: 0.75 h
Listed next: entries and their corresponding inhibition (INH).
readout.name: inhibition (INH) (%)

INSERT INTO assay_data (given_smiles, value_reported) VALUES
  ('Cn1c(=O)c2c(nc3n2CCN3Cc2ccc(Cl)c(Cl)c2)n(C)c1=O', -2),
  ('Cn1c(=O)c2c(nc3n2CCCCN3Cc2ccc(Cl)c(Cl)c2)n(C)c1=O', 5),
  ('Cn1c(=O)c2c(nc3n2CCCCN3Cc2ccc(Cl)cc2Cl)n(C)c1=O', -2),
  ('Cn1c(=O)c2c(nc3n2CCCN3Cc2ccc(Cl)c(C(F)(F)F)c2)n(C)c1=O', 2),
  ('Cn1c(=O)c2c(nc3n2CCCCN3Cc2ccc(Cl)cc2)n(C)c1=O', 6),
  ('Cn1c(=O)c2c(nc3n2CCCN3Cc2ccc(F)c(Br)c2)n(C)c1=O', 1),
  ('Cn1c(=O)c2c(nc3n2CCCN3Cc2ccc(Cl)c(F)c2)n(C)c1=O', 9),
  ('Cn1c(=O)c2c(nc3n2CCCN3Cc2c(F)cccc2Cl)n(C)c1=O', 10),
  ('Cn1c(=O)c2c(nc3n2CCCN3Cc2cccc(Br)c2)n(C)c1=O', -1),
  ('Cn1c(=O)c2c(nc3n2CCCCN3Cc2ccccc2Cl)n(C)c1=O', 4),
  ('COc1ccccc1CN1CCn2c1nc1c2c(=O)n(C)c(=O)n1C', 7),
  ('Cn1c(=O)c2c(nc3n2CCCCN3Cc2cccc(Br)c2)n(C)c1=O', 6);
